Tested system: β1c (Homo sapiens, UniProt P28072+Q99436)
Construct: protease activity associated with the proteasome complex in cultured cells; endogenous in cells
Assay method text: Cell-Based Proteasome Activity/Selectivity Assay (Ramos cells), substrate (LLE)2 Rh110
Applied conditions: highest concentration tested 20 μM
From the text: Cell-Based Proteasome Activity/Selectivity Assay The Cell-Based Proteasome subunit activity/selectivity assay was a panel of 5 fluorogenic assays that independently measured the activity of β5c or β5i (chymotrypsin-like activity), β2c/2i (trypsin-like), and β1c or β1i (caspase-like) protease activity associated with the proteasome complex in cultured cells. […]
pIC50: −log10 of the molar value.
Assay metric: pIC50

{"Molecule smiles": "COc1ccc(C[C@H](NC(=O)C2(NC(=O)C3Cc4ccccc4C3)CC2)C(=O)N[C@@H](Cc2ccccc2)C(=O)C(=O)NCc2ccccc2)cc1", "pIC50": 4.89}
{"Molecule smiles": "C[C@H](NC(=O)c1cc(C(F)(F)F)nn1C)C(=O)N[C@@H](Cc1ccccc1)C(=O)N[C@@H](Cc1ccccc1)C(=O)C(=O)NCc1ccccc1", "pIC50": "< 4.70"}
{"Molecule smiles": "COc1ccc(C[C@H](NC(=O)C2(NC(=O)OCc3ccccc3)CC2)C(=O)N[C@@H](Cc2ccccc2)C(=O)C(=O)NCc2ccccc2)cc1", "pIC50": "< 4.70"}
{"Molecule smiles": "COc1ccc(C[C@H](NC(=O)[C@H](C)NS(=O)(=O)c2ccccc2C)C(=O)N[C@@H](Cc2ccccc2)C(=O)C(=O)NCc2ccccc2)cc1", "pIC50": 4.83}

Quickly give me recorded pIC50 for C[C@H](NC(=O)OCc1ccccc1)C(=O)N[C@@H](Cc1ccc(Cl)cc1)C(=O)N[C@@H](Cc1ccccc1)C(=O)C(=O)NCc1ccccc1 < 4.70

Please look at this molecule and report its pIC50: C[C@H](NC(=O)OCc1ccccc1)C(=O)N[C@@H](Cc1c[nH]c2ccccc12)C(=O)N[C@@H](Cc1ccccc1)C(=O)C(=O)N(C)Cc1ccccc1 < 4.70

// Input: COc1ccc(C[C@H](NC(=O)[C@H](C)NC(=O)C2Cc3ccccc3C2)C(=O)N[C@@H](Cc2ccccc2)C(=O)C(=O)NCc2ccccc2)cc1 . Output its pIC50 only. < 4.70
